Let's look at some compounds and their measured Fluorescence peaks Peak position λex/λem.
Biological target: HSA (Homo sapiens)
Construct: purchased HiMedia (Mumbai, India)
Sequence (P02768 25-609): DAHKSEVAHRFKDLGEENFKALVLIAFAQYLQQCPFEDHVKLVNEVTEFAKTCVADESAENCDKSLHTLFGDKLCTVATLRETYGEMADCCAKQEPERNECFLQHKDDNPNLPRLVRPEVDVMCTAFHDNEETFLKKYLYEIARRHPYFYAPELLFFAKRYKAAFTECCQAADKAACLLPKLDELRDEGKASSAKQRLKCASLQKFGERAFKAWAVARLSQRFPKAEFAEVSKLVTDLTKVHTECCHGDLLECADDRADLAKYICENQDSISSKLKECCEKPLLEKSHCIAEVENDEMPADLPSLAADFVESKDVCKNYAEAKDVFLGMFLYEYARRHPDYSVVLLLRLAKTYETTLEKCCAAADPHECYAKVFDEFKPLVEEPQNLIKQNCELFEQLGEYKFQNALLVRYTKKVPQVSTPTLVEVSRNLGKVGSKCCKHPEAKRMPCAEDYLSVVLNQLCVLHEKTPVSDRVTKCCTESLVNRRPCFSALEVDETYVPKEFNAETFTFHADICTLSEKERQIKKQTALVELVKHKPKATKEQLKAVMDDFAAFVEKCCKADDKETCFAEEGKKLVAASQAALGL
Assay: Three-dimensional fluorescence spectra of HSA
Type: binding
Details: HSA 10 μM + compound 10 μM, pH 7.4, 298 K

1. CCNC1=N[N+]2=C(C)c3[c](c4ccc(OC)cc4oc3=O)[Ru-4]2([C]#[O+])([P+](c2ccccc2)(c2ccccc2)c2ccccc2)([P+](c2ccccc2)(c2ccccc2)c2ccccc2)[S]1 [Complex 3, [Ru(7MAC-etsc)(CO)(PPh3)2]]    280/337

Fluorescence peaks Peak position λex/λem for COc1ccc2[c]3c(c(=O)oc2c1)C(C)=[N+]1N=C(N)[S][Ru-4]31([C]#[O+])([P+](c1ccccc1)(c1ccccc1)c1ccccc1)[P+](c1ccccc1)(c1ccccc1)c1ccccc1 [Complex 1, [Ru(7MAC-tsc)(CO)(PPh3)2]] ?
280/335

Fluorescence peaks Peak position λex/λem for COc1ccc2[c]3c(c(=O)oc2c1)C(C)=[N+]1N=C(Nc2ccccc2)[S][Ru-4]31([C]#[O+])([P+](c1ccccc1)(c1ccccc1)c1ccccc1)[P+](c1ccccc1)(c1ccccc1)c1ccccc1 [Complex 4, [Ru(7MAC-ptsc)(CO)(PPh3)2]] ?
280/332

Fluorescence peaks Peak position λex/λem for CNC1=N[N+]2=C(C)c3[c](c4ccc(OC)cc4oc3=O)[Ru-4]2([C]#[O+])([P+](c2ccccc2)(c2ccccc2)c2ccccc2)([P+](c2ccccc2)(c2ccccc2)c2ccccc2)[S]1 [Complex 2, [Ru(7MAC-mtsc)(CO)(PPh3)2]] ?
280/331
